experiment: chemical genetic growth profiling, strain panel (AID 1159580);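 further: tested at 20 µM; growth read once vehicle control cultures reached saturation at 30 °C; 1 = growth at the plate median or of vehicle wells; lower values mean less growth of the strain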; settings: S. cerevisiae deletion strains, growth OD, locus YBR229C, strain ROT2, stronger effect = lower value
Out of some 5,500 compounds screened, about 2,000 (36%) were called active. About 18% were inconclusive and are not listed. This is one part of the list.
MEASURED METRIC: normalized growth
Answers are plain numbers.

Worked cases, answers included:
INSERT INTO assay_data (molecule, measured_metric, experimental_result) VALUES
  ('COC1=C(OC)C(=O)C(C/C=C(\C)CC/C=C(\C)CC/C=C(\C)CC/C=C(/C)CC/C=C(\C)CC/C=C(\C)CC/C=C(\C)CC/C=C(\C)CC/C=C(\C)CCC=C(C)C)=C(C)C1=O', 'normalized growth', 0.959),
  ('CCOc1ccc(/C=C(\C#N)c2cccc(Cl)c2)cc1', 'normalized growth', 0.995);

[in] Given the entry CCC(C)C(=O)O[C@H]1[C@H](O)C2C(CN3CC(C)CCC3[C@@]2(C)O)C2C[C@]34O[C@]5(O)C(OC(=O)C(C)(O)C(C)O)CC[C@@]3(C)C5C(OC(C)=O)[C@@H](OC(C)=O)C4[C@@]21O (stereo partly drawn) , report its measured normalized growth.
[out] 1
